- test.name: small-molecule microarray binders of probe aCHRDL2, primary screen, biochemical, biotinylated probe, 635/667 nm fluorescence (AID 1100)
- experimental.parameters: higher = more signal
property: composite z-score
Answer using only a numeral; do not append any unit.

Q: Requested field: composite z-score. Item: NC(=O)NCC#Cc1ccc2c(c1)[C@]1(C(=O)N2)[C@H](c2ccc(OCCO)cc2)N2[C@H](c3ccccc3)[C@H](c3ccccc3)OC(=O)[C@H]2[C@@H]1C(=O)Nc1nc2ccccc2s1
A: 1.2

Q: Requested field: composite z-score. Item: COc1ccc([Si](C)(C)[C@@H]2[C@@H](CCn3cc(CCO)nn3)O[C@]3(C(=O)N(Cc4ccc(N5C(=O)c6cccc7cccc5c67)cc4)c4ccccc43)[C@H]2C)cc1
A: 0.207

Q: Requested field: composite z-score. Item: COC(=O)[C@@]1(CCC(=O)OC(C)(C)C)COC(c2ccc(OCCCO)cc2)=N1
A: 1.18
